- ASSAY TARGET: CBP (Homo sapiens)
- Sequence (Q92793 1085-1192 limits assumed): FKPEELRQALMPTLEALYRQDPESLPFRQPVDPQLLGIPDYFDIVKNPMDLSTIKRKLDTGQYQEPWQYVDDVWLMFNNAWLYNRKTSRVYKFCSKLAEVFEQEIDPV
- ASSAY PROTOCOL: Peptide displacement AlphaScreen
- Format: binding
- RUN PARAMETERS: read-out: AlphaScreen IC50 CBP
MEASURED PARAMETER: pIC50
Keep it numeric: pIC50 is minus log10 of the concentration in mol/L.

INSERT INTO assay_data (structure_as_smiles, result_number) VALUES
  ('Cc1noc(C)c1-c1ccc2c(c1)nc(CCc1ccccc1)n2CCN1CCCCC1', 6.74),
  ('Cc1noc(C)c1-c1ccc2c(c1)nc(CCc1ccccc1)n2CCN1CCCC1', 6.08);

I am curious: what pIC50 value has been reported for Cc1noc(C)c1-c1ccc2c(c1)nc(CCc1ccccc1)n2CCN1CCC1 ?
6.24

Lookup Cc1noc(C)c1-c1ccc2c(c1)nc(CCc1ccccc1)n2CCN1CCOCC1
6.09
